Test system: Escherichia coli
Method Notes: Antibacterial activity against Escherichia coli ATCC 35218 by serial dilution method
Type: functional
Calls of active or inactive are those of the source. No cut-off for these calls is given here.
Readout Name: MIC

Molecule | Result
CCCCCCCCSC1=CC(=O)C(C[C@]2(C)[C@@H](C)CC[C@]3(C)C(C)=CCC[C@@H]23)=CC1=O | 25 µg/mL
CC1=CCC[C@H]2[C@](C)(CC3=CC(=O)C(SC(C)C)=CC3=O)[C@@H](C)CC[C@]12C | inactive
CC1CCC[C@H]2[C@](C)(CC3=CC(=O)C(Cl)=CC3=O)[C@@H](C)CC[C@]12C (some centres not stated) | 25 µg/mL
CCCSC1=CC(=O)C(C[C@]2(C)[C@@H](C)CC[C@]3(C)C(C)=CCC[C@@H]23)=CC1=O | inactive
CC1=CCC[C@H]2[C@](C)(CC3=CC(=O)C=C(Sc4ccccc4)C3=O)[C@@H](C)CC[C@]12C | inactive
C[C@H]1c2cccc(O)c2C(=O)C2=C(O)[C@]3(O)C(=O)C(C(N)=O)=C(O)[C@@H](N(C)C)[C@@H]3[C@@H](O)[C@@H]21.O | 2 µg/mL
CC1=CCC[C@H]2[C@](C)(CC3=CC(=O)C(SC(C)(C)C)=CC3=O)[C@@H](C)CC[C@]12C | inactive
